ASSAY DETAILS: Cytotoxicity against mouse RAW264.7 cells assessed as cell survival at 100 ug/ml after 48 hrs by MTT assay
Type: cell-based
CONDITION DETAILS: read-out: Survival
METRIC NAME: viability at 48 h, 100 ug/ml (%)
Give bare numbers, in %.

Take a look at these entries with their results.
[
  {
    "COMPOUND SMILES": "C=CCc1ccc(OC(=O)c2ccccc2)c(OC)c1",
    "viability at 48 h, 100 ug/ml / %": 97.7
  },
  {
    "COMPOUND SMILES": "N=C(N)c1ccc(OCCCCCOc2ccc(C(=N)N)cc2)cc1",
    "viability at 48 h, 100 ug/ml / %": 85.6
  },
  {
    "COMPOUND SMILES": "C[C@@H]1[C@H](O)[C@@H](C)/C=C/C=C/C=C/C=C/C=C/C=C/C=C/[C@H](O[C@@H]2O[C@H](C)[C@@H](O)[C@H](N)[C@@H]2O)C[C@@H]2O[C@](O)(C[C@@H](O)C[C@@H](O)[C@H](O)CC[C@@H](O)C[C@@H](O)CC(=O)O[C@H]1C)C[C@H](O)[C@H]2C(=O)O",
    "viability at 48 h, 100 ug/ml / %": 98.5
  },
  {
    "COMPOUND SMILES": "Cc1ccc(C(C)C)c(OC(=O)c2ccccc2)c1",
    "viability at 48 h, 100 ug/ml / %": 63.6
  },
  {
    "COMPOUND SMILES": "C=CCc1ccc(O)c(OC)c1",
    "viability at 48 h, 100 ug/ml / %": 29
  }
]

Now look at this one.
Name the recorded viability at 48 h, 100 ug/ml for Cc1ccc(C(C)C)c(O)c1 .
36.5
